Target: Gastrin/cholecystokinin type B receptor (Rattus norvegicus)
Conditions: Stomach
Description: Antagonist activity at CCK2 receptor in stomach-lumen perfused immature rat
OUTCOME MEASURE: pKb
Enter the number alone.

Some compounds with known pKb results, for comparison:
{"COMPOUND": "O=C1NN(C(=O)Nc2ccc(Br)cc2)[C@H](c2ccccc2)[C@H]1c1ccccc1", "pKb": 5.9}
{"COMPOUND": "COc1ccc(CCNC(=O)[C@H](CC(=O)O)NC(=O)[C@H](Cc2ccc3ccccc3c2)NC(=O)[C@H](Cc2c[nH]c3ccccc23)NC(=O)OC(C)(C)C)cc1", "pKb": 5.4}
{"COMPOUND": "O=C(O)c1cc(NC(=O)[C@H](Cc2ccc(I)cc2)NC(=O)c2cc3cc[nH]c3cc2C(=O)NCC23CC4CC(CC(C4)C2)C3)cc(C(=O)O)c1", "pKb": 9.1}

# lookup: pKb of C[C@@H](NC(=O)C[C@@H]1CCCN1C(=O)C1C2c3ccccc3C(c3ccccc32)C1C(=O)NCC12CC3CC(CC(C3)C1)C2)C(=O)O (some centres undefined) 7.3

* * *

Target: Cholecystokinin receptor type A (Cavia porcellus)
Sequence (Q63931 whole entry): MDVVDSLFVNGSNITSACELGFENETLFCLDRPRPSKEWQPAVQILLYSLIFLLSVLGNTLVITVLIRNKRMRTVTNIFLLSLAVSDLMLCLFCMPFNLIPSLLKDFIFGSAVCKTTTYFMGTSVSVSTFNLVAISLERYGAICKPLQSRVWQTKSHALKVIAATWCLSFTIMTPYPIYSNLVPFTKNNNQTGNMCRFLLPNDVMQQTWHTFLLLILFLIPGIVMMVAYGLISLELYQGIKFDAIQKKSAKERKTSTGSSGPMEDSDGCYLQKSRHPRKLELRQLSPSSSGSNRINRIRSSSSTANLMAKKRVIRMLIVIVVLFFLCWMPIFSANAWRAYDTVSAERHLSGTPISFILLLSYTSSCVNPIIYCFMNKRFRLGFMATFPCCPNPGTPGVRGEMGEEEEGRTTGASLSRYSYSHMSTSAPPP
Residues, ends and D or L forms follow the SMILES beside them. *: point of attachment. NHPhenethyl = c1ccc(CCN*)cc1; Boc = CC(C)(C)OC(=O)*
We'd kindly ask you to apply these Ki classes: group 1: < 800 nM; group 2: ≥ 800 nM and < 4000 nM; group 3: ≥ 4000 nM

The following compounds have reported results that may help.
{"COMPOUND": "C[C@](Cc1c[nH]c2ccccc12)(NC(=O)OC1[C@H]2C[C@@H]3C[C@@H](C[C@H]1C3)C2)C(=O)NC[C@H](NC(=O)CCC(=O)O)c1ccccc1 (stereo partly drawn)", "CLASSIFICATION": "group 1"}
{"COMPOUND": "CN1C(=O)[C@H](NC(=O)Nc2cccc(-c3nnn[nH]3)c2)N=C(c2ccccc2)c2ccccc21", "CLASSIFICATION": "group 1"}
{"COMPOUND": "CNc1cccc(NC(=O)N[C@@H]2N=C(c3ccccn3)c3ccccc3N(CC(=O)C(C)(C)C)C2=O)c1 [NETAZEPIDE]", "CLASSIFICATION": "group 1"}
{"COMPOUND": "CC(C)C[C@H](NC(=O)[C@H](Cc1c[nH]c2ccccc12)NC(=O)OC(C)(C)C)C(=O)N[C@@H](CC(=O)O)C(=O)NCCc1ccccc1 (Boc-Trp-Leu-Asp-NHPhenethyl)", "CLASSIFICATION": "group 3"}
{"COMPOUND": "O=C(O)c1cc(NC(=O)[C@H](Cc2ccccc2)NC(=O)c2cc3cc[nH]c3cc2C(=O)NC2CCCCCC2)cc(C(=O)O)c1", "CLASSIFICATION": "group 2"}

// next entry
Assign a category based on measured Ki for Nc1cccc2cc(C(=O)N[C@@H](Cc3ccccc3)C(=O)Nc3cc(C(=O)O)cc(C(=O)O)c3)c(C(=O)NCC34CC5CC(CC(C5)C3)C4)cc12 and give only the class name. group 2

Every entry's value here was drawn from ChEMBL document CHEMBL1140745.
